Each recorded value in this set is attributed to patent US20140315886A1.

Measured IC50, listed per entry for reference.
system: purified STEP46 enzyme (Homo sapiens, UniProt P54829)
Sequence (P54829 197-565 limits assumed): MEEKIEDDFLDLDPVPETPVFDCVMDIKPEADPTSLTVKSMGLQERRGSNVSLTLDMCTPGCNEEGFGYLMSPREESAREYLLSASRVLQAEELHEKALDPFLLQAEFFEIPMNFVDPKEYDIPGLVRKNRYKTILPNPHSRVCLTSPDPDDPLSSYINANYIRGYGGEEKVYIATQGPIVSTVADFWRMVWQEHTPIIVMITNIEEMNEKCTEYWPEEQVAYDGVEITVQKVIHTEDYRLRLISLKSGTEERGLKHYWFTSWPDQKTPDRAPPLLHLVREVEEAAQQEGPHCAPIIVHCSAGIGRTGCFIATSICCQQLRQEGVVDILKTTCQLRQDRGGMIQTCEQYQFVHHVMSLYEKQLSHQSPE

compound | system | measured_attribute | experimental_value
CCOc1ccc2nc(-c3cccnc3)nc(Nc3cncc(Cl)c3)c2c1 | purified STEP46 enzyme (Homo sapiens, UniProt P54829) | IC50 | < 1 µM
COc1ccc2nc(-c3cccnc3)nc(Nc3ccc(C#N)cn3)c2c1 | purified STEP46 enzyme (Homo sapiens, UniProt P54829) | IC50 | 1 to 10 µM
Cc1ccc(Nc2nc(-c3cccnc3)nc3ccc(-c4ccc(F)cc4)cc23)nc1 | purified STEP46 enzyme (Homo sapiens, UniProt P54829) | IC50 | 1 to 10 µM
CNc1nc(-c2cccnc2)nc2c(C)c(-c3ccc(C)cc3)ccc12 | purified STEP46 enzyme (Homo sapiens, UniProt P54829) | IC50 | > 10 µM
CNc1nc(-c2cccnc2)nc2cc(-c3cc(F)cc(OCCOC)c3)ccc12 | purified STEP46 enzyme (Homo sapiens, UniProt P54829) | IC50 | 1 to 10 µM

Need IC50 of CCOc1cccc(-c2ccc3nc(-c4cccnc4)nc(NC)c3c2)c1F , thanks.
> 10 µM

Try CNc1nc(-c2cccnc2)nc2cc(-c3ccc(OC)cc3F)ccc12 next.
1 to 10 µM

Same read-out for CNc1nc(-c2cccnc2)nc2cc(-c3c(F)ccc(F)c3C)ccc12 ?
> 10 µM

And Clc1ccc2c(c1)CCN2c1nc(-c2cccnc2)nc2cc(-c3ccncc3)ccc12 ?
1 to 10 µM

Same for CNc1nc(-c2cccnc2)nc2c(F)cc(-c3ccc(OC)cc3)cc12
1 to 10 µM

Thanks! And Cc1cncc(Nc2nc(-c3cccnc3)nc3ccc(Cl)cc23)c1 ?
1 to 10 µM

---

system: UniProt:P54829
pIC50: −log10 of the molar value.
measured_attribute: pIC50

The examples below pair each entry with its known result.
compound | system | pIC50
Fc1ccc(-c2ccc3nc(-c4cccnc4)nc(N4CCc5ccc(Cl)cc54)c3c2)cc1 | UniProt:P54829 | 5.00 to 6.00
CNc1nc(-c2cccnc2)nc2c(F)c(-c3csc4ccccc34)ccc12 | UniProt:P54829 | 5.00 to 6.00
CNc1nc(-c2cccnc2)nc2ccc(-c3cccc(S(C)(=O)=O)c3)cc12 | UniProt:P54829 | < 5.00
CNc1nc(-c2cccnc2)nc2ccc(-c3nnc(C)s3)cc12 | UniProt:P54829 | < 5.00

State the recorded pIC50 for this entry: Fc1ccc(-c2ccc3nc(-c4cccnc4)nc(N4CC(F)(F)C4)c3c2)c(F)c1
< 5.00

Queued: COc1ccc2nc(-c3cccnc3)nc(Nc3cccc(F)n3)c2c1
< 5.00

Entry to check: CNc1nc(-c2cccnc2)nc2cc(F)c(-c3ccc(F)cc3)cc12
5.00 to 6.00

Note, next up: CNc1nc(-c2cnccn2)nc2cc(-c3cc(F)ccc3F)ccc12
5.00 to 6.00

One more compound: CNc1nc(-c2cccnc2)nc2cc(-c3ccc(F)cc3)c(F)cc12
5.00 to 6.00
